# Tested on: P388 leukemia ip, CD2F1 mice, survival T/C
# METHOD DESCRIPTION: NCI In Vivo Anticancer Drug Screen. Data for tumor model P388 Leukemia (intraperitoneal) in CD2F1 (CDF1) mice
# CONDITION CONTEXT: endpoint: median survival time; dose: 120.0 mg/kg/injection; schedule: Q01DX005 (ip); vehicle: Klucel (hydroxypropylcellulose) (HPC); higher = longer survival
Inconclusive results and toxic doses are left out.
ATTRIBUTE MEASURED: T/C

For record CN(C)C1CS(=O)(=O)OC2=C1CCc1c2ccn1C (stereo not given) the listed T/C is 98 % of control

GET /value?item= CCO/C=C(\C)CC1([N+](=O)[O-])C(=O)c2ccccc2C1=O &field=T/C returns 107 % of control

The measured T/C associated with COC1(OC)C(c2cccs2)C(C#N)(C#N)C1(OC)OC (stereo not given) reads 105 % of control

T/C reported for this molecule Clc1ccc(C(Nc2nncs2)Nc2nncs2)cc1Cl : 96 % of control

Given item OCC(CCc1c[nH]c2ccccc12)c1c[nH]c2ccccc12 (stereo not given) , the value recorded as its T/C is 90 % of control

* * *

# Tested on: P388 leukemia ip, CD2F1 mice, survival T/C
# METHOD DESCRIPTION: NCI In Vivo Anticancer Drug Screen. Data for tumor model P388 Leukemia (intraperitoneal) in CD2F1 (CDF1) mice
# CONDITION CONTEXT: endpoint: median survival time; dose: 100.0 mg/kg/injection; schedule: Q01DX005 (ip); vehicle: saline with Tween-80; higher = longer survival
Inconclusive results and toxic doses are left out.
ATTRIBUTE MEASURED: T/C

Entry Cc1ccc2occ(/C=N/NC(N)=S)c(=O)c2c1 — recorded T/C = 97 % of control

The reported value for O=C1CN(c2cccc(C(F)(F)F)c2)C(=O)CN1/N=C/c1cccnc1 in terms of T/C is 97 % of control

// CCOc1ccc(Cc2ccc3c(c2)OCO3)cc1C : T/C value = 108 % of control

Please fill in: T/C reported for O=[N+]([O-])c1ccc(O)c(/C=N\NS(=O)(=O)c2ccc(F)cc2)c1 = 93 % of control

# compound CN(CCN1C(=O)c2cccc3cccc(c23)C1=O)CCN1C(=O)c2cccc3cccc(c23)C1=O ; its T/C = 87 % of control

The recorded T/C for CCOC(=O)C1=C(N)C2CC(C)=C(C)CN2C1 (stereo not drawn) is 100 % of control

The compound identified as O=C1Nc2ccc3[nH]ncc3c2C1=O registered its T/C at 103 % of control

Just so you know, measured T/C for CCN(CC)CCNC1CC(C)CC(C)(C)C1 (stereo not drawn) came out at 101 % of control

Sure, the documented T/C for CC1=Cc2cc(C)cc(C)c2C1=O is 93 % of control

The measured T/C associated with CCCCCNCC(=O)N1CCCC1C(=O)OC(C)(C)C (stereo not drawn) reads 105 % of control

Query Cc1cc2c(C(C)C)c(O)c(O)c(C=Nc3ccc(C(=O)NCC(=O)O)cc3)c2c(O)c1-c1c(C)cc2c(C(C)C)c(O)c(O)c(C=Nc3ccc(C(=O)NCC(=O)O)cc3)c2c1O yields T/C of 100 % of control

Entry Cc1nn(C(=O)c2cccnc2)c(-c2ccccc2)c1N=Nc1ccc(C(=O)O)cc1 ; T/C = 93 % of control

Field T/C (entry COc1cc(NC(=O)OCc2cccnc2)cc(OC)c1OC ) reads 98 % of control

In plain terms, CN1N=Nc2ccccc2NC1=O has a documented T/C of 99 % of control

Entry O=C1c2ccccc2C(=O)c2cc3c(cc21)C1OC3C2=C1CC1C(=O)OC(=O)C1C2 (stereo not drawn) — recorded T/C = 93 % of control

Note to self: T/C recorded for C/C(N=NC(=S)N1CCCCCC1)=C1\C=CC=CN1O was 108 % of control

Value of measured T/C for the entry C=CCOc1cc2c(cc1C(C)c1ccc(OCC)c(C)c1)OCO2 (stereo not drawn) : 103 % of control

Reported T/C ( CN(CC#CC#CCN(C)c1ccccc1)c1ccccc1 ) = 102 % of control

GET /value?item= O=C1c2ccccc2C2(c3ccc(O)cc3)c3ccccc3Oc3cccc1c32 (stereo not drawn) &field=T/C returns 92 % of control

get_value(item= CC(C)(Nc1ccccc1)C(=O)OC(C)(C)C(=O)Nc1ccccc1 , readout=T/C) returns 91 % of control

Quick note, T/C for CCOC(=O)Cc1csc(=S)n1Cc1ccccc1 landed at 108 % of control

Query O=C1c2ccccc2C(=O)c2c(I)cccc21 yields T/C of 97 % of control

The compound identified as O=C(NC(C(=O)NO)C(NO)c1ccccc1)c1ccccc1 (stereo not drawn) registered its T/C at 102 % of control

Source: PubChem BioAssay AID330
